# ASSAY_SYSTEM: HIV Env of isolate 89-F1_2_25 (clade CD) (HIV)
# TEST_PROTOCOL: cell-based or functional assay

| BINDER | IC50 (µg/ml) with constrains |
| --- | --- |
| ePGDM13 (antibody, V domains shown) VH: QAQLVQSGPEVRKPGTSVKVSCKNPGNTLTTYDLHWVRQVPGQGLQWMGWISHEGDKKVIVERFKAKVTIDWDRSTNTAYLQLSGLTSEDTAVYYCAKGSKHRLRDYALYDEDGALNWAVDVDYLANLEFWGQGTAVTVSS VL: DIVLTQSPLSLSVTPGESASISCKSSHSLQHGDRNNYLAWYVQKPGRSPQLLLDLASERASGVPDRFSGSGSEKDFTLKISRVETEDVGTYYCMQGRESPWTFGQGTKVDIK | 0.001 µg/mL |
| PGDM1400 (antibody, V domains shown) VH: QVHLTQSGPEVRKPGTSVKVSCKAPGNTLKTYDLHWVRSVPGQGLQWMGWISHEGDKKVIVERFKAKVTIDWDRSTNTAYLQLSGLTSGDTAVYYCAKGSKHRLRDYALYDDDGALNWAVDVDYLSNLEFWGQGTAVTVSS VL: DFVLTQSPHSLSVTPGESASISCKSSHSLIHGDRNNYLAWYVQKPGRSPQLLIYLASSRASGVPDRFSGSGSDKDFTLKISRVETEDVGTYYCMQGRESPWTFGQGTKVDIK | 0.003 µg/mL |
| ePGDM5 (antibody, V domains shown) VH: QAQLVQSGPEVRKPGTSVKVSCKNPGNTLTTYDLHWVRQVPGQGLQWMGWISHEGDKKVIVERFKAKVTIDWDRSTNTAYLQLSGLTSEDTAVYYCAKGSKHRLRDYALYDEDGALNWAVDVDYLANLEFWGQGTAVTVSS VL: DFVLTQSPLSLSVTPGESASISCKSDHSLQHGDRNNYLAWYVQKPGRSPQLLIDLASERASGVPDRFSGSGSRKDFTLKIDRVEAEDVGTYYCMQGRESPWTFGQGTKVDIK | 0.001 µg/mL |
